Data provenance is PubChem BioAssay.

Biological target: Fibroblast growth factor 10 (Homo sapiens)
Test: FGF10 binders on small-molecule microarrays, primary screen, biochemical, small-molecule microarray, 635 nm fluorescence (AID 1102)
Settings: FGF10 binding, fluorescence 635 nm, higher = more signal

{"columns": ["input-smiles", "composite z-score"],
 "data": [
  ["C#CCCCON=C1C[C@@H](O)[C@@H](O)[C@@H]2[C@@H]3C(=O)N(C4CCCCC4)C(=O)[C@@H]3CC[C@H]12", 0.402],
  ["CCCNC(=O)OC[C@H]1O[C@H](CCON=C(C)CCC(=O)OC[C@H]2O[C@H](C#Cc3ccccc3)C=C[C@@H]2Oc2ccc(C)cc2)C=C[C@@H]1Oc1ccc(OC)cc1", -0.397],
  ["CC(C)CCN1CCc2nc(-c3ccccc3)c3c(c2C1)CO[C@@H](C)C3", 0.476],
  ["CC(C)C(=O)N[C@@H]1CCCN1C(=O)C=Cc1ccccc1", 0.419],
  ["O=C1[C@H]2[C@H]3[C@H](O)[C@H](O)CC(=NOCc4ccccc4)[C@H]3CC[C@H]2C(=O)N1Cc1ccccc1", 0.185],
  ["CC(C)=CCCC(C)=CCON=C1C[C@@H](O)[C@@H](O)[C@@H]2[C@@H]3C(=O)N([C@@H](C)c4ccccc4)C(=O)[C@@H]3CC[C@H]12", 0.739],
  ["C[C@@H](ON=C1[C@H]2CCn3c(=O)n(-c4ccccc4)c(=O)n3[C@H]2[C@H](O)[C@@H]2O[C@H]12)c1cn([C@H](CO)Cc2ccccc2)nn1", 0.416],
  ["CO[C@H]1COC(=O)CC=C[C@@H](C)COC(=O)[C@@H](OCc2ccccc2)C=C[C@@H]1C", 0.241]
]}

----------
Target: NADPH oxidase 2 (Homo sapiens)
Assay: NOX2-dependent H2O2 signal modulators, primary screen, NOX inhibitor project, cell-based, HEK293-NOX2, PMA-stimulated, Amplex Red fluorescence (AID 1159); also: test concentration not given here
Conditions: 45 min, higher = more signal, called active from +8 up or from −8 down
measured-parameter: z-score

{"columns": ["molecule", "numeric-value"],
 "data": [
  ["CCN1C(=O)[C@H]2[C@H]3[C@H](O)[C@H](O)CC(=NOC)[C@@H]3CC[C@H]2C1=O", -0.0884],
  ["CO[C@@H]1COC(=O)CC=C[C@H](C)COC(=O)[C@H](C)NC(=O)CC=C[C@H]1C", 2.01],
  ["CCOC(=O)[C@H](Cc1ccccc1)NC(=O)CCC1CC(OC(=O)NCc2cccc3ccccc23)CC2(CCCC(COC(=O)NCCCN3CCCC3=O)O2)O1 (stereo partly specified)", 1.09],
  ["COc1ccc(COC(=O)NN=C2C[C@@H](O)[C@@H](O)[C@@H]3[C@@H]4C(=O)N(C(C)(C)C)C(=O)[C@@H]4CC[C@H]23)cc1", -0.818],
  ["C#CCCCON=C1C[C@@H](O)[C@@H](O)[C@@H]2[C@@H]3C(=O)N(C4CCCCC4)C(=O)[C@@H]3CC[C@H]12", -1.26],
  ["CC(=O)OC[C@H]1O[C@H](C#CC(C)(C)C)C=C[C@@H]1OC(C)=O", 1.5]
]}

----------
Assay: RPMI8226 myeloma cell viability, profiling panel, resazurin fluorescence, basal, 24 h, PK04 Diversity Set (AID 1180);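 also: RPMI8826 multiple myeloma cell line at 5000 cells per well; test concentration not given here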
Conditions: higher = more signal
Measured z-score, listed per entry for reference.
measured-parameter: z-score

{"columns": ["compound", "numeric-value"],
 "data": [
  ["CC(C)C(=O)N[C@@H]1CCCN1C(=O)C=Cc1ccccc1", 0.227],
  ["CCOC(=O)[C@H](Cc1ccccc1)NC(=O)CCC1CC(OC(=O)NCc2cccc3ccccc23)CC2(CCCC(COC(=O)NCCCN3CCCC3=O)O2)O1 (some centres undefined)", 1.75],
  ["COC(=O)[C@H](C)NC(=O)CCC1CC(OC(=O)NCCc2ccc(F)cc2)CC2(CCCC(COC(=O)NCCCN3CCCC3=O)O2)O1 (some centres undefined)", 0.315],
  ["CC(C)=NOC[C@@H](O)COCc1ccco1", -1.11]
]}
